test: in vitro; format: cell-based, rat (Sprague–Dawley); conditions: Sprague-Dawley, rat
Peptide text beside a SMILES is read from it.
readout kind: hemolysis at 1 h, 150 µM (%)
Reply with just the number (in %).

hemolysis at 1 h, 150 µM in this record for CC(C)C[C@H](NC(=O)[C@H](CCCCN)NC(=O)[C@H](CCCCN)NC(=O)[C@@H](N)CCCCN)C(=O)N[C@@H](Cc1cccc2ccccc12)C(=O)N[C@@H](Cc1ccc(O)cc1)C(=O)N[C@@H](Cc1cccc2ccccc12)C(N)=O [Compound 19, Lys-Lys-Lys-Leu(1-Nal)Ala-Tyr-(1-Nal)Ala] (HELM PEPTIDE1{K.K.K.L.[O=C([C@H](Cc1cccc2ccccc12)N[*:1])[*:2]].Y.[O=C([C@H](Cc1cccc2ccccc12)N[*:1])[*:2]].[am]}$$$$V2.0) : 101

---

test system: human erythrocytes; test: in vitro; assay type: cell-based; conditions: red cells of human
Peptide text beside a SMILES is read from it.
Collected IC50 values appear next to each entry.

A selection of reference data follows.
{"columns": ["compound", "readout kind", "recorded result"],
 "data": [
  ["CC(C)C[C@@H](NC(=O)[C@H](CCCCN)NC(=O)[C@H](CCCCN)NC(=O)[C@@H](N)CCCCN)C(=O)N[C@H](Cc1ccc2ccccc2c1)C(=O)N[C@H](Cc1ccccc1)C(=O)N[C@H](Cc1ccc2ccccc2c1)C(N)=O [Compound 12] (HELM PEPTIDE1{K.K.K.[dL].[O=C([C@@H](Cc1ccc2ccccc2c1)N[*:1])[*:2]].[dF].[O=C([C@@H](Cc1ccc2ccccc2c1)N[*:1])[*:2]].[am]}$$$$V2.0)", "IC50", "> 150 µM"],
  ["CC(C)C[C@@H](NC(=O)[C@H](CCCCN)NC(=O)[C@H](CCCCN)NC(=O)[C@@H](N)CCCCN)C(=O)N[C@H](Cc1cccc2ccccc12)C(=O)N[C@H](Cc1ccc(O)cc1)C(=O)N[C@H](Cc1cccc2ccccc12)C(N)=O [Compound 21] (HELM PEPTIDE1{K.K.K.[dL].[O=C([C@@H](Cc1cccc2ccccc12)N[*:1])[*:2]].[dY].[O=C([C@@H](Cc1cccc2ccccc12)N[*:1])[*:2]].[am]}$$$$V2.0)", "IC50", "> 150 µM"]
]}

Here's the next entry for you.
IC50 in this record for CC(C)C[C@H](NC(=O)[C@H](CCCCN)NC(=O)[C@@H](N)CCCCN)C(=O)N[C@@H](CCCCN)C(=O)N[C@@H](Cc1cccc2ccccc12)C(=O)N[C@@H](Cc1ccccc1)C(=O)N[C@@H](Cc1cccc2ccccc12)C(N)=O [Compound 6] (HELM PEPTIDE1{K.K.L.K.[O=C([C@H](Cc1cccc2ccccc12)N[*:1])[*:2]].F.[O=C([C@H](Cc1cccc2ccccc12)N[*:1])[*:2]].[am]}$$$$V2.0; N-terminus assumed) : > 150 µM

---

assay: in vitro; format: cell-based, human; conditions: human
Peptide text beside a SMILES is read from it.
Collected hemolysis at 1 h, 150 µM values appear next to each entry.
Reply with just the number (in %).

{"columns": ["molecule", "hemolysis at 1 h, 150 µM, %"],
 "data": [
  ["CC(C)C[C@@H](NC(=O)[C@H](CCCCN)NC(=O)[C@H](CCCCN)NC(=O)[C@@H](N)CCCCN)C(=O)N[C@H](Cc1cccc2ccccc12)C(=O)N[C@H](Cc1ccccc1)C(=O)N[C@H](Cc1cccc2ccccc12)C(N)=O [Compound 11] (HELM PEPTIDE1{K.K.K.[dL].[O=C([C@@H](Cc1cccc2ccccc12)N[*:1])[*:2]].[dF].[O=C([C@@H](Cc1cccc2ccccc12)N[*:1])[*:2]].[am]}$$$$V2.0)", 33.3]
]}

hemolysis at 1 h, 150 µM in this record for CC(C)C[C@H](NC(=O)[C@H](CCCCN)NC(=O)[C@H](CCCCN)NC(=O)[C@@H](N)CCCCN)C(=O)N[C@@H](Cc1cccc2ccccc12)C(=O)N[C@@H](Cc1ccccc1)C(=O)N[C@@H](Cc1cccc2ccccc12)C(N)=O [Compound 7, Lys-Lys-Lys-Leu-(1-Nal)Ala-Phe(1-Nal)Ala] (HELM PEPTIDE1{K.K.K.L.[O=C([C@H](Cc1cccc2ccccc12)N[*:1])[*:2]].F.[O=C([C@H](Cc1cccc2ccccc12)N[*:1])[*:2]].[am]}$$$$V2.0) : 83.8

---

Tested on: human erythrocytes
Test: in vitro
Type: cell-based
Conditions: human erythrocytes
Procedure: The haemolytic activity of the 24 structurally related peptides (Table 1) was evaluated in erythrocytes from four different species (human, canine, bovine and rat) employing standard methodology. The subsequent release of haemoglobin was used to assess haemolytic activity as function of peptide and peptidomimetic concentration, with concentrations ranging from 0.15 to 150 µM (Presented in whole in Supplementary information Table S1–S4). […]
Peptide text beside a SMILES is read from it.
readout kind: IC10 haemolysis (µM)
Reply with just the number (in µM).

{"columns": ["molecule", "IC10 haemolysis [µM]"],
 "data": [
  ["CC(C)C[C@@H](NC(=O)[C@H](CCCCN)NC(=O)[C@H](CCCCN)NC(=O)[C@@H](N)CCCCN)C(=O)N[C@H](Cc1cccc2ccccc12)C(=O)N[C@H](Cc1ccccc1)C(=O)N[C@H](Cc1cccc2ccccc12)C(N)=O [Compound 11] (HELM PEPTIDE1{K.K.K.[dL].[O=C([C@@H](Cc1cccc2ccccc12)N[*:1])[*:2]].[dF].[O=C([C@@H](Cc1cccc2ccccc12)N[*:1])[*:2]].[am]}$$$$V2.0)", 32.8]
]}

Here's the next entry for you.
// molecule CC(C)C[C@@H](NC(=O)[C@H](CCCCN)NC(=O)[C@H](CCCCN)NC(=O)[C@@H](N)CCCCN)C(=O)N[C@H](Cc1ccc2ccccc2c1)C(=O)N[C@H](Cc1ccccc1)C(=O)N[C@H](Cc1ccc2ccccc2c1)C(N)=O [Compound 12] (HELM PEPTIDE1{K.K.K.[dL].[O=C([C@@H](Cc1ccc2ccccc2c1)N[*:1])[*:2]].[dF].[O=C([C@@H](Cc1ccc2ccccc2c1)N[*:1])[*:2]].[am]}$$$$V2.0) , assay human erythrocytes, IC10 haemolysis value: 34.6

---

Collected IC10 haemolysis values appear next to each entry.
test system: human erythrocytes; assay: in vitro; assay type: cell-based; details: human erythrocytes
Square brackets hold non-standard residues; d marks the D form. Peptide text beside a SMILES is read from it. N(1-naphthylmethyl)Gly = O=C(O)CNCc1cccc2ccccc12; Nphe = O=C(O)CNCc1ccccc1; NBuGly = CCCCNCC(=O)O
Reply with just the number (in µM).

{"columns": ["compound", "recorded result"],
 "data": [
  ["CC(C)C[C@H](NC(=O)[C@H](CCCCN)NC(=O)[C@H](Cc1ccc2ccccc2c1)NC(=O)[C@H](Cc1ccccc1)NC(=O)[C@@H](N)Cc1ccc2ccccc2c1)C(=O)N[C@@H](CCCCN)C(=O)N[C@@H](CCCCN)C(N)=O [Compound 13] (HELM PEPTIDE1{[N[C@@H](Cc1ccc2ccccc2c1)C(=O)[*:2]].F.[O=C([C@H](Cc1ccc2ccccc2c1)N[*:1])[*:2]].K.L.K.K.[am]}$$$$V2.0; N-terminus assumed)", 44.2],
  ["CC(C)C[C@H](NC(=O)[C@H](CCCCN)NC(=O)[C@H](CCCCN)NC(=O)[C@@H](N)CCCCN)C(=O)N[C@@H](Cc1cccc2ccccc12)C(=O)N[C@@H](Cc1ccccc1)C(=O)N[C@@H](Cc1cccc2ccccc12)C(N)=O [Compound 7, Lys-Lys-Lys-Leu-(1-Nal)Ala-Phe(1-Nal)Ala] (HELM PEPTIDE1{K.K.K.L.[O=C([C@H](Cc1cccc2ccccc12)N[*:1])[*:2]].F.[O=C([C@H](Cc1cccc2ccccc12)N[*:1])[*:2]].[am]}$$$$V2.0)", 35.2]
]}

Here's the next entry for you.
IC10 haemolysis in this record for CCCCN(CC(=O)N[C@@H](CCCCN)C(=O)N[C@@H](CCCCN)C(=O)N[C@@H](CCCCN)C(N)=O)C(=O)CN(Cc1cccc2ccccc12)C(=O)CN(Cc1ccccc1)C(=O)CNCc1cccc2ccccc12 [Compound 2] (H-[N(1-naphthylmethyl)Gly][Nphe][N(1-naphthylmethyl)Gly][NBuGly]KKK-NH2) : 11.2

---

Test system: human erythrocytes
Assay: in vitro
Format: cell-based
Conditions: human erythrocytes
Experimental: The haemolytic activity of the 24 structurally related peptides (Table 1) was evaluated in erythrocytes from four different species (human, canine, bovine and rat) employing standard methodology. The subsequent release of haemoglobin was used to assess haemolytic activity as function of peptide and peptidomimetic concentration, with concentrations ranging from 0.15 to 150 µM (Presented in whole in Supplementary information Table S1–S4). […]
Square brackets hold non-standard residues; d marks the D form. Peptide text beside a SMILES is read from it. 2Nal = N[C@@H](Cc1ccc2ccccc2c1)C(=O)O; Nlys = NCCCCNCC(=O)O
I would appreciate it if you labelled entries Fulfilled when IC10 haemolysis is 50 µM or higher, otherwise Not fulfilled.

Known results for molecules:
{"columns": ["molecule", "group"],
 "data": [
  ["CC(C)C[C@@H](NC(=O)[C@@H](Cc1cccc2ccccc12)NC(=O)[C@@H](Cc1ccccc1)NC(=O)[C@H](N)Cc1cccc2ccccc12)C(=O)N[C@@H](CCCCN)C(=O)N[C@@H](CCCCN)C(=O)N[C@@H](CCCCN)C(N)=O [Compound 9] (HELM PEPTIDE1{[N[C@H](Cc1cccc2ccccc12)C(=O)[*:2]].[dF].[O=C([C@@H](Cc1cccc2ccccc12)N[*:1])[*:2]].[dL].K.K.K.[am]}$$$$V2.0)", "Fulfilled"],
  ["CC(C)C[C@H](NC(=O)[C@H](Cc1cccc2ccccc12)NC(=O)[C@H](Cc1ccccc1)NC(=O)[C@@H](N)Cc1cccc2ccccc12)C(=O)N[C@@H](CCCCN)C(=O)N[C@@H](CCCCN)C(=O)N[C@@H](CCCCN)C(N)=O [Compound 5] (HELM PEPTIDE1{[N[C@@H](Cc1cccc2ccccc12)C(=O)[*:2]].F.[O=C([C@H](Cc1cccc2ccccc12)N[*:1])[*:2]].L.K.K.K.[am]}$$$$V2.0)", "Not fulfilled"],
  ["CC(C)C[C@H](NC(=O)[C@H](CCCCN)NC(=O)[C@H](CCCCN)NC(=O)[C@@H](N)CCCCN)C(=O)N[C@@H](Cc1ccc2ccccc2c1)C(=O)N[C@@H](Cc1ccc(O)cc1)C(=O)N[C@@H](Cc1ccc2ccccc2c1)C(N)=O [Compound 17] (HELM PEPTIDE1{K.K.K.L.[O=C([C@H](Cc1ccc2ccccc2c1)N[*:1])[*:2]].Y.[O=C([C@H](Cc1ccc2ccccc2c1)N[*:1])[*:2]].[am]}$$$$V2.0)", "Fulfilled"],
  ["CC(C)C[C@H](NC(=O)CN(CCCCN)C(=O)CN(CCCCN)C(=O)CNCCCCN)C(=O)N[C@@H](Cc1ccc2ccccc2c1)C(=O)N[C@@H](Cc1ccccc1)C(=O)N[C@@H](Cc1ccc2ccccc2c1)C(N)=O [Compound 23] (H-[Nlys][Nlys][Nlys]L[2Nal]F[2Nal]-NH2)", "Fulfilled"]
]}

Decide: is the reported value of IC10 haemolysis for CCCC[C@H](NC(=O)[C@H](CCCCN)NC(=O)[C@H](CCCCN)NC(=O)[C@@H](N)CCCCN)C(=O)N[C@@H](Cc1ccc2ccccc2c1)C(=O)N[C@@H](Cc1ccccc1)C(=O)N[C@@H](Cc1ccc2ccccc2c1)C(N)=O [Compound 18] (HELM PEPTIDE1{K.K.K.[Nle].[O=C([C@H](Cc1ccc2ccccc2c1)N[*:1])[*:2]].F.[O=C([C@H](Cc1ccc2ccccc2c1)N[*:1])[*:2]].[am]}$$$$V2.0) equal to or greater than 50 µM?
Not fulfilled

Decide: is the reported value of IC10 haemolysis for CC(C)C[C@H](NC(=O)[C@H](CCCCN)NC(=O)[C@H](Cc1cccc2ccccc12)NC(=O)[C@H](Cc1ccccc1)NC(=O)[C@@H](N)Cc1cccc2ccccc12)C(=O)N[C@@H](CCCCN)C(=O)N[C@@H](CCCCN)C(N)=O [Compound 16] (HELM PEPTIDE1{[N[C@@H](Cc1cccc2ccccc12)C(=O)[*:2]].F.[O=C([C@H](Cc1cccc2ccccc12)N[*:1])[*:2]].K.L.K.K.[am]}$$$$V2.0) equal to or greater than 50 µM?
Not fulfilled

// provenance: paper PMC7414031
